tested on: CCRF-CEM; assay: NCI tumour cell line growth inhibition, 48 h
The source made the active and inactive calls. Cut-off read from the data, not from the text of the source: active = GI50 up to about 1.1 µM and inactive = higher.
ASSAY READOUT: GI50

// query Can you look up the measured GI50 of "O=c1[nH]ncc2[nH]c3c4ccccc4ccc3c12" for me?
// result 46.3 µM (inactive)

// query // repeat for "CN(CCCNC(=O)c1cn(C)c2c1ccc1ccccc12)CCCNC(=O)c1cn(C)c2c1ccc1ccccc12" and report
// result 2.26 µM (inactive)

// query Also check "CCOC(=O)NC(=O)c1cn(CCCOC(=O)NCCCCCCNC(=O)OCCCn2cc(C(=O)NC(=O)OCC)c(=O)[nH]c2=O)c(=O)[nH]c1=O"
// result 5.4 µM (inactive)
